tested-target: Histone acetyltransferase RTT109 (Saccharomyces cerevisiae (strain ATCC 204508 / S288c) (Baker's yeast)) (UniProt Q07794)
Sequence (Q07794 whole entry): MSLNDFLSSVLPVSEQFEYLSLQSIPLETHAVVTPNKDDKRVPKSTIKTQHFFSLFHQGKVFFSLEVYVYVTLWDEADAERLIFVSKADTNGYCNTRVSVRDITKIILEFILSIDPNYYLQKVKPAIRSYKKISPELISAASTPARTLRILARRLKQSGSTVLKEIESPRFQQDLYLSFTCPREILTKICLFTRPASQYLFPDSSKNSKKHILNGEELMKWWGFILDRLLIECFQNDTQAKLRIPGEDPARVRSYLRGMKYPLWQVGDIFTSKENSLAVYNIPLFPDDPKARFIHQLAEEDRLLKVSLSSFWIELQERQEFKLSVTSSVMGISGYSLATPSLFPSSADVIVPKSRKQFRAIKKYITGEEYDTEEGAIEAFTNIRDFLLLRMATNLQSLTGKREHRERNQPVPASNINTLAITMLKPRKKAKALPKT
procedure-details: Inhibition of Vps75-stimulated recombinant Saccharomyces cerevisiae histone acetyltransferase Rtt109 assessed as H3K27 acetylated product at […] after 45 mins by Slot bolt inhibiton assay
Activity calls are given as the source filed them. The rule behind the calls is not given here.
Classes used: YES for active, NO for inactive

molecule: Cc1ccc(Sc2cc(NS(=O)(=O)c3ccc(Cl)cc3)c3ccccc3c2O)cc1
label: NO
//
molecule: O=S(=O)(Nc1cc(Sc2nnnn2-c2ccccc2)c(O)c2ccccc12)c1ccccc1
label: YES
//
molecule: O=C1CC(Sc2nncn2-c2ccccc2)C(=O)N1c1cc(Cl)cc(Cl)c1 (stereo not drawn)
label: YES
